Reference source: the supplement of paper PMC3545927

targetSystem: furin, P09958;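 further: purified furin at 1:10 enzyme:substrate in 50 mM HEPES pH 7.5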
Sequence (P09958 whole entry): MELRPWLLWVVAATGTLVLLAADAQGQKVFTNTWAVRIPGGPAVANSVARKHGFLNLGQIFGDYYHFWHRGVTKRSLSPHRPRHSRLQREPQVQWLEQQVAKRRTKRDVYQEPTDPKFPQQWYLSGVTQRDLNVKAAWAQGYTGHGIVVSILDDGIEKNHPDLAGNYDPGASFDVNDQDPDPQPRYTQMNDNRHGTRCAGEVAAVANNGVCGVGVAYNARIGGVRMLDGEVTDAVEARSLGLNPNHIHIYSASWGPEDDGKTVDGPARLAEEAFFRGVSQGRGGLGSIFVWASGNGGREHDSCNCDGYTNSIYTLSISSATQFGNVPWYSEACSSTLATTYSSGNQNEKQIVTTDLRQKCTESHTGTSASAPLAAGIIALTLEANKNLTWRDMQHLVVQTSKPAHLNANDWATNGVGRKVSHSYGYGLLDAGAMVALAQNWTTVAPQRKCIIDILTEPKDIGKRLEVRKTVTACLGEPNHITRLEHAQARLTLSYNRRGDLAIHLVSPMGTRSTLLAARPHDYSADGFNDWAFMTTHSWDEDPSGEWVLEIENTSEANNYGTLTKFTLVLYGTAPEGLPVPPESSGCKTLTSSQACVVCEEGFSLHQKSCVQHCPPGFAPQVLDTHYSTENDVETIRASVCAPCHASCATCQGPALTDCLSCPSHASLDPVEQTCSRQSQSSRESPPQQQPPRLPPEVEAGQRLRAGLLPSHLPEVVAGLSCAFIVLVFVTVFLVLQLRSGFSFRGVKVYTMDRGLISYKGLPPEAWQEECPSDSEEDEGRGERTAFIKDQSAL
assayProtocol: furin cleavage Z-score vs untreated control; higher = more cleavage, active = 3.5 or more, inactive = 1 or less, 8 variable residues between constant flanks
conditionSet: 30 min
Some of the results follow. How many sequences the whole screen found active is unknown.
attributeMeasured: furin cleavage Z-score
Field format: numeric only.

Exam item: Supply reported furin cleavage Z-score belonging to this sequence: CATGLIHLHQAGNASASA [HC504]
Marked response: -0.549

Exam item: Supply reported furin cleavage Z-score belonging to this sequence: CAVVCCRMSYAGNASASA [HC110]
Marked response: 0.409

Exam item: Supply reported furin cleavage Z-score belonging to this sequence: CAWVVTSTWVAGNASASA [HC2148]
Marked response: -1.01

Exam item: Supply reported furin cleavage Z-score belonging to this sequence: CAVVCCEMSYAGNASASA [HC113]
Marked response: 2.06

Exam item: Supply reported furin cleavage Z-score belonging to this sequence: CAEGVFTGLTAGNASASA [HC940]
Marked response: -0.239

Exam item: Supply reported furin cleavage Z-score belonging to this sequence: CATTPCSQSWAGNASASA [HC1902]
Marked response: -0.222

Exam item: Supply reported furin cleavage Z-score belonging to this sequence: CAPQGDAAQKAGNASASA [NG3]
Marked response: 0.729
